Reference source: patent US10092548B2

Biological target: purified N-terminal partial domain of NUP153 (Homo sapiens, UniProt P49790)
Sequence (P49790 235-326): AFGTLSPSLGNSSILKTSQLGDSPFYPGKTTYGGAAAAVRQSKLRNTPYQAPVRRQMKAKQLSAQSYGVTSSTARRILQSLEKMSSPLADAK
outcomeMeasure: pKd
# pKd: negative log10 of molar concentration; output just the value

Query string: Name the reported pKd value associated with the compound CNC[C@H](OC)c1ccc(O)cc1 [OMe-Syn, R-(−)-β-O-Methylsynephrine]
Result string: 8.62
